B1: Chromodomain-helicase-DNA-binding protein 4, residues 444 to 496; numbered along this chain, Q14839 (parent)
chain: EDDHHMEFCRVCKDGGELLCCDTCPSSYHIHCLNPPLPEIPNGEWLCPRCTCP

Variants of: B1
PROTOCOL NOTES: abundance fitness (aPCA) (normalised: wild type 0, dead -1); higher = more abundant; growth selection in yeast, the domain comes from the species named
MEASUREMENT SETUP: Homo sapiens
Overview of reported abundance fitness across a group of variants:
Please reply with the value in numeric form only.

INSERT INTO assay_data (mutation, measured_result) VALUES
  ('M6C', -0.207),
  ('R10T', 0.028),
  ('P48N', -0.54),
  ('P48Y', -0.567);

Problem: What does the data say about its abundance fitness? Entry: `I40A`
Solution: 0.07

Problem: What does the data say about its abundance fitness? Entry: `R10M`
Solution: -0.301

Problem: What does the data say about its abundance fitness? Entry: `C50P`
Solution: -0.755

Problem: What does the data say about its abundance fitness? Entry: `L19Y`
Solution: -0.276

Problem: What does the data say about its abundance fitness? Entry: `G16F`
Solution: -0.556
